- Assay name: BA test (oral absorption)
- Format: in vivo
- Run conditions: plasma; mice or SD rats; from AUCs of oral and intravenous administration
Measured parameter: bioavailability (%)
Kindly provide the numeric value in % only, without the unit symbol.

Example entries and their recorded answers appear below.
1. CS(=O)(=O)CC(=O)Nc1c(CCC2CC2)nn2c1C(=O)N[C@@]1(CCc3cc(OCC(F)(F)F)ccc31)C2: 53.1
2. CS(=O)(=O)CC(=O)Nc1c(-c2ccc(F)c(F)c2)nn2c1C(=O)N[C@@]1(CCc3cc(OCC(F)(F)F)ccc31)C2: 60.5

API: the following record is the query input.
Q: Complete the entry with bioavailability for `Cc1ccc(-c2nn3c(c2NC(=O)CS(C)(=O)=O)C(=O)N[C@@]2(CCc4cc(OCC(F)(F)F)ccc42)C3)nc1`
Ans: 55.1

====

- Target desc: UniProtKB Q12809
- Sequence (Q12809 whole entry): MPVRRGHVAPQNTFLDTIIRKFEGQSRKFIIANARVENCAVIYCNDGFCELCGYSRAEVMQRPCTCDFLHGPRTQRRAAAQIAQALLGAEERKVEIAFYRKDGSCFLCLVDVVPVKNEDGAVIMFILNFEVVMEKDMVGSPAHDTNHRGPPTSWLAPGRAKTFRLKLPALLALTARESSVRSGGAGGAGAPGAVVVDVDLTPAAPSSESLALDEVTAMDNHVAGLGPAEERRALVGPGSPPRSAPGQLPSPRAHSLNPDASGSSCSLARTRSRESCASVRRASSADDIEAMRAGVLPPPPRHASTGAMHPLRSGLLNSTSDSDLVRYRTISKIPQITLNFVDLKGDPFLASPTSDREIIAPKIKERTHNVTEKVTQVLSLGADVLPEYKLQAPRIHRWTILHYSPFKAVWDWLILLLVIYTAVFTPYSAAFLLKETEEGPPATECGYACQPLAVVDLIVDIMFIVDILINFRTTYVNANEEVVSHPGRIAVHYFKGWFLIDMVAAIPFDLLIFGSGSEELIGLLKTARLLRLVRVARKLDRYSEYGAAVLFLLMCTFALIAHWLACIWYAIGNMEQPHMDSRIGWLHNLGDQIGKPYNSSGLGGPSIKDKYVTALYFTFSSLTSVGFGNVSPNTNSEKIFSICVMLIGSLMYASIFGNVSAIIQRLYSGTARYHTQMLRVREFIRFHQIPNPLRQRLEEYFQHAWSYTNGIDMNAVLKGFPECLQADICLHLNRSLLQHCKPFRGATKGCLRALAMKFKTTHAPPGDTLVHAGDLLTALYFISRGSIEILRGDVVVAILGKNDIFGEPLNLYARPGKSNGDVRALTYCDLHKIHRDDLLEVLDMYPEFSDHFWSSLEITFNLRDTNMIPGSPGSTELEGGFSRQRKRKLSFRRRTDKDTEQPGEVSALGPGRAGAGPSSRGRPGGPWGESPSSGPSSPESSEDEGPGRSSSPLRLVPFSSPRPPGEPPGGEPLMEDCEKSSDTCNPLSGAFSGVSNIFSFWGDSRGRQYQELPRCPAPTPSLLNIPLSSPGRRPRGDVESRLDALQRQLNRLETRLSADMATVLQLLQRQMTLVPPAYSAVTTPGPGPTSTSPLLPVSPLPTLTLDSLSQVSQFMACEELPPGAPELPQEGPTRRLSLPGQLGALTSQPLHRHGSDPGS
- Assay name: hERG test
- Format: cell-based
- Run conditions: CHO cells expressing hERG channel, pH 7.4, 10 μmol/L of test compound, read-out: % inhibition of hERG tail peak current (IKr)
Measured parameter: inhibition at 10 min, 10 μmol/L
Output should be the measured figure followed by the unit it is expressed in.

Example entries and their recorded answers appear below.
1) N#Cc1ccc(-c2nn3c(c2NC(=O)CC(F)(F)F)C(=O)N[C@@]2(CCc4cc(OCC(F)(F)F)ccc42)C3)nc1: 25.5%
2) CS(=O)(=O)CC(=O)Nc1c(-c2ccc(Cl)cn2)nn2c1C(=O)N[C@@]1(CCc3cc(F)cc(F)c31)C2: 10.6%
3) CS(=O)(=O)CC(=O)Nc1c(-c2ccc(F)c(F)c2)nn2c1C(=O)N[C@@]1(CCOc3cc(F)cc(F)c31)C2: 14.2%
4) CS(=O)(=O)CC(=O)Nc1c(-c2ccc(F)cc2)nn2c1C(=O)N[C@]1(CCc3cc(OCC(F)(F)F)ccc31)C2: 25.5%
5) CS(=O)(=O)CC(=O)Nc1c(-c2ccc(Cl)cn2)nn2c1C(=O)N[C@@]1(CCOc3cc(F)cc(F)c31)C2: 23.6%

API: the following record is the query input.
Q: Complete the entry with inhibition at 10 min, 10 μmol/L for `CS(=O)(=O)CC(=O)Nc1c(-c2ccc(F)c(F)c2)nn2c1C(=O)N[C@@]1(CCc3cc(OCC(F)(F)F)ccc31)C2`
Ans: 21.3%

====

# reported Remaining rate; entries follow
- Assay name: Metabolism stability test (human liver microsomes)
- Type: in vitro ADME
- Run conditions: compound concentration 0.5 μmol/L, 37° C., 30 minutes, NADPH
- Procedure: Using commercially available pooled human hepatic microsomes, the compound of the present invention was reacted for a constant time, a remaining rate was calculated by comparing a reacted sample and an unreacted sample, thereby, a degree of metabolism of the compound of the present invention in liver was assessed. […]
Output should be the measured figure followed by the unit it is expressed in.

Example entries and their recorded answers appear below.
1. CS(=O)(=O)CC(=O)Nc1c(-c2ccc(Cl)cn2)nn2c1C(=O)N[C@@]1(CCc3cc(F)cc(F)c31)C2 [Compound I-142]: 106%
2. CS(=O)(=O)CC(=O)Nc1c(CCC2CC2)nn2c1C(=O)N[C@@]1(CCc3cc(OCC(F)(F)F)ccc31)C2 [Compound I-46]: 78.1%
3. CS(=O)(=O)CC(=O)Nc1c(-c2ccc(F)c(F)c2)nn2c1C(=O)N[C@@]1(CCOc3cc(F)cc(F)c31)C2 [Compound I-126]: 100%

API: the following record is the query input.
Q: Complete the entry with Remaining rate for Cc1ccc(-c2nn3c(c2NC(=O)CS(C)(=O)=O)C(=O)N[C@@]2(CCc4cc(OCC(F)(F)F)ccc42)C3)cc1 [Compound I-20]
Ans: 74.5%

====

- Target desc: recombinant human MGAT2 (Homo sapiens (Human), UniProt Q3SYC2)
- Sequence (Q3SYC2 whole entry): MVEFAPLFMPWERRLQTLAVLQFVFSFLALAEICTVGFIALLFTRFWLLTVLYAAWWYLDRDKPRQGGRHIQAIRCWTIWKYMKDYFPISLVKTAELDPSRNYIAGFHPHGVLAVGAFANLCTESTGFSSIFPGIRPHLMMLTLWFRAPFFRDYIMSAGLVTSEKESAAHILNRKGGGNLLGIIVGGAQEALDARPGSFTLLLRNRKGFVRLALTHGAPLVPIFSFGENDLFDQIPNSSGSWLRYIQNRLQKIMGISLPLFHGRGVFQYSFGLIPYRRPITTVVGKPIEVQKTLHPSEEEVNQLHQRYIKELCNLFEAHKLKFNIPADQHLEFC
- Assay name: Measurement of human MGAT2 inhibitory activity
- Assay type: biochemical
- Run conditions: concentration exhibiting 50% enzyme inhibition; recombinant human MGAT2, 2-Oleoylglycerol/Oleoyl-CoA; listed as 1-62
Measured parameter: IC50 (nM)
Kindly provide the numeric value in nM only, without the unit symbol.

Q: Complete the entry with IC50 for CS(=O)(=O)CC(=O)Nc1c(CCCC(F)(F)F)nn2c1C(=O)NC1(CCc3cc(OCC(F)(F)F)ccc31)C2 (single isomer, unassigned)
Ans: 1.39

====

- Target desc: recombinant human MGAT2 (Homo sapiens (Human), UniProt Q3SYC2)
- Assay name: Measurement of human MGAT2 inhibitory activity
- Format: biochemical
- Run conditions: concentration exhibiting 50% enzyme inhibition; recombinant human MGAT2, 2-Oleoylglycerol/Oleoyl-CoA
Measured parameter: pIC50
Expect pIC50 as a plain number equal to -log10 of the molar concentration.

Example entries and their recorded answers appear below.
1) C[S@@](=N)(=O)CC(=O)Nc1c(-c2cc(F)c(F)c(F)c2)nn2c1C(=O)N[C@@]1(CCc3cc(OCC(F)(F)F)ccc31)C2 (single isomer, unassigned) [Compound I-106]: 8.31
2) CCCCCc1nn2c(c1NC(=O)CS(C)(=O)=O)C(=O)N[C@@]1(CCOc3cc(OCC(F)(F)F)ccc31)C2 [Compound I-113]: 8.80

API: the following record is the query input.
Q: Complete the entry with pIC50 for CC(C)(O)c1ccc(-c2nn3c(c2NC(=O)CS(C)(=O)=O)C(=O)N[C@]2(CCc4cc(OCC(F)(F)F)ccc42)C3)cc1 [Compound I-93]
Ans: 8.02

====

- Target desc: recombinant human MGAT2 (Homo sapiens (Human), UniProt Q3SYC2)
- Assay name: Measurement of human MGAT2 inhibitory activity
- Format: biochemical
- Run conditions: concentration exhibiting 50% enzyme inhibition; recombinant human MGAT2, 2-Oleoylglycerol/Oleoyl-CoA
pIC50: −log10 of the molar value.
Could you label it Fulfilled if measured pIC50 is 8 or higher, and Not fulfilled otherwise?

Example results:
1) COc1ccc(-c2nn3c(c2NC(=O)CS(C)(=O)=O)C(=O)N[C@@]2(CCc4cc(OCC(F)(F)F)ccc42)C3)cc1: Not fulfilled
2) N#Cc1ccc(-c2nn3c(c2NC(=O)c2ccno2)C(=O)N[C@@]2(CCc4cc(OCC(F)(F)F)ccc42)C3)nc1: Fulfilled
3) CS(=O)(=O)CC(=O)Nc1c(-c2ccc(S(C)(=O)=O)cc2)nn2c1C(=O)N[C@]1(CCc3cc(OCC(F)(F)F)ccc31)C2: Not fulfilled
4) Cc1ccc(-c2nn3c(c2NC(=O)CC(F)(F)F)C(=O)N[C@]2(CCc4cc(OCC(F)(F)F)ccc42)C3)nc1: Not fulfilled
5) Cc1ccc(-c2nn3c(c2NC(=O)CS(=O)(=O)N(C)C)C(=O)N[C@@]2(CCc4cc(OCC(F)(F)F)ccc42)C3)nc1: Not fulfilled

Consider now this further molecule.
Q: State whether the measured pIC50 reaches 8, counting equality as reaching it, for `CC(C)c1ccc(-c2nn3c(c2NC(=O)CS(C)(=O)=O)C(=O)N[C@@]2(CCc4cc(OCC(F)(F)F)ccc42)C3)cc1`
Ans: Fulfilled

====

- Target desc: recombinant human MGAT2 (Homo sapiens (Human))
- Assay name: Measurement of human MGAT2 inhibitory activity
- Assay type: biochemical
- Run conditions: concentration exhibiting 50% enzyme inhibition; recombinant human MGAT2, 2-Oleoylglycerol/Oleoyl-CoA
Measured parameter: IC50 (nM)
Kindly provide the numeric value in nM only, without the unit symbol.

Example entries and their recorded answers appear below.
1) Cc1ccc(-c2nn3c(c2NC(=O)CS(C)(=O)=O)C(=O)NC2(CCc4cc(OCc5ccccc5)ccc42)C3)nc1 (stereo not shown): 1
2) CS(=O)(=O)CC(=O)Nc1c(-c2ccc(F)c(F)c2)nn2c1C(=O)N[C@]1(CCOc3cc(F)cc(F)c31)C2: 8.24
3) CS(=O)(=O)CC(=O)Nc1c(CCC2CC2)nn2c1C(=O)N[C@]1(CCc3cc(OCC(F)(F)F)ccc31)C2: 1.08
4) Cc1ccc(-c2nn3c(c2NC(=O)CS(C)(=O)=O)C(=O)N[C@]2(CCc4cc(OCC(F)(F)F)ccc42)C3)cc1F: 1.1
5) CS(=O)(=O)CC(=O)Nc1c(-c2ccc(C3CC3)cc2)nn2c1C(=O)N[C@]1(CCc3cc(OCC(F)(F)F)ccc31)C2: 2.88

Q: Complete the entry with IC50 for `CS(=O)(=O)CC(=O)Nc1c(-c2ccc(F)cc2)nn2c1C(=O)NC1(CN(c3ccc(C(F)(F)F)cc3)C1)C2`
Ans: 1.41

Q: Complete the entry with IC50 for `CS(=O)(=O)CC(=O)Nc1c(-c2ccc(C#N)cn2)nn2c1C(=O)N[C@]1(CCc3cc(OCC(F)(F)F)ccc31)C2`
Ans: 1.93

Q: Complete the entry with IC50 for `CS(=O)(=O)CC(=O)Nc1c(-c2ccc(OC(F)(F)F)cc2)nn2c1C(=O)N[C@]1(CCc3cc(OCC(F)(F)F)ccc31)C2`
Ans: 4.37

Q: Complete the entry with IC50 for `Cc1cc(F)ccc1-c1nn2c(c1NC(=O)CS(C)(=O)=O)C(=O)N[C@]1(CCc3cc(OCC(F)(F)F)ccc31)C2`
Ans: 19.5
